Molecular target: rat ASIC3 (rASIC3) (Rattus norvegicus, UniProt O35240)
Construct: expressed in transfected cells; host or cells: Xenopus laevis oocytes (injected)
Sequence (O35240 1-533): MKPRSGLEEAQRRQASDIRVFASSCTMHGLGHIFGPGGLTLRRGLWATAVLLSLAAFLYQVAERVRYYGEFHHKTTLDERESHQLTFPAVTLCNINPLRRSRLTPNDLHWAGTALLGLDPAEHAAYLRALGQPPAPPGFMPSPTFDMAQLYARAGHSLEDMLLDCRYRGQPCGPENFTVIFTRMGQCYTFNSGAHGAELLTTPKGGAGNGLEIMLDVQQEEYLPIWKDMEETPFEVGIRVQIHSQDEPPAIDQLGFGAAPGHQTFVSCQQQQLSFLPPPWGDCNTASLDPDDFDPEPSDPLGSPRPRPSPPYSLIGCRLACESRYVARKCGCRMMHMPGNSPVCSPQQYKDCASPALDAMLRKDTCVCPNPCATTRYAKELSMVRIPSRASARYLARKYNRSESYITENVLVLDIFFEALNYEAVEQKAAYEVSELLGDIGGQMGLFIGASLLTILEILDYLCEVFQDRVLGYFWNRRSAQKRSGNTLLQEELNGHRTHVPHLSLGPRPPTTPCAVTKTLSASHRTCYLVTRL
Test: Recovery of the transient current of rASIC3 from steady-state desensitization, oocytes
Assay type: cell-based
Conditions: rASIC3, conditioning pH 6.8, pH 5.5 stimulus, n = 4-5
property.label: EC50 (mM)
Give just the numeric value; mM need not be written.

Could you share what EC50 was measured for Oc1ccc(CC2NCCc3cc(O)c(O)cc32)cc1O (stereo not shown) [THP, tetrahydropapaveroline] , tested on rat ASIC3 (rASIC3) (Rattus norvegicus, UniProt O35240)?
4.6

---

molecular target: rat ASIC3 (rASIC3) (Rattus norvegicus, UniProt O35240); construct: expressed in transfected cells; host or cells: Xenopus laevis oocytes (injected); assay: Activation of rASIC3 channels expressed in Xenopus laevis oocytes, whole-cell two electrode voltage clamp; format: cell-based; settings: rASIC3, holding pH 7.8, logistic fit, n = 5; read-out: EC50 of channel activation (EIA-induced sustained current)
property.label: EC50

Name the recorded EC50 for Oc1ccc(CC2NCCc3cc(O)c(O)cc32)cc1O (stereo not shown) [THP, tetrahydropapaveroline] .
> 10 mM

---

molecular target: human ASIC3 (hASIC3) (Homo sapiens, UniProt Q9UHC3); construct: expressed in transfected cells; host or cells: Xenopus laevis oocytes (injected); experiment: Recovery of the transient current of hASIC3 from steady-state desensitization, oocytes; assay type: cell-based; conditions: hASIC3, conditioning pH 7.3, pH 5.5 stimulus, n = 4-5
Sequence (Q9UHC3 whole entry): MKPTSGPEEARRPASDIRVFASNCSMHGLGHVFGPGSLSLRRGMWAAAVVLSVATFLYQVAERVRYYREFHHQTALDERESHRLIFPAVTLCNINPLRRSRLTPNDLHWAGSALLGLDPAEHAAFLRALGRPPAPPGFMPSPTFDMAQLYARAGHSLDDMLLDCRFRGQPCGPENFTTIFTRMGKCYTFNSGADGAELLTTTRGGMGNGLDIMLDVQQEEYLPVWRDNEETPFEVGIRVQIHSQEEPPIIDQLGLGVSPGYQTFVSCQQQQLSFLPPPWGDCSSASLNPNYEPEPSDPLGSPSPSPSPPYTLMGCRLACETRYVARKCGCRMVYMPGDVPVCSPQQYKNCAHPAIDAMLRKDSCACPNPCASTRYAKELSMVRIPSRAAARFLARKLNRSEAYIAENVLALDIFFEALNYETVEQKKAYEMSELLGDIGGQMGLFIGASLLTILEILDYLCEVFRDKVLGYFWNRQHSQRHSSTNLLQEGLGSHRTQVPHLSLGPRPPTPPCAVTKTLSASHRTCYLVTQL
property.label: pEC50
Bear in mind: pEC50 is minus log10 of a mol/L concentration; give just that figure.

Quick one: pEC50 for Oc1ccc(CC2NCCc3cc(O)c(O)cc32)cc1O (stereo not shown) [THP, tetrahydropapaveroline] ?
2.64
